Each item that follows carries a reported ka.
Molecular target: GST-pro-dom-NGF (Homo sapiens, UniProt P01138, A35V)
Construct: previously described GST-NGF-pro-domain fusion protein (Nykjaer et al., Nature 2004)
Sequence (P01138 19-121 A35V): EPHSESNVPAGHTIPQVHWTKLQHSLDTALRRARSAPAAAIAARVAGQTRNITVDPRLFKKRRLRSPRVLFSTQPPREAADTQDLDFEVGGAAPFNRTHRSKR
Test: SPR binding of GST-pro-dom-NGF to immobilized sortilin site-directed mutants
Conditions: GST-pro-dom-NGF at 10-50 nM; 1:1 binding model
Where no end group is shown, it is not given here.

Known ka results, listed for orientation:
q: Supply recorded ka for K172A: single residue mutant of his-tagged sortilin luminal domain; SEQ ID NO 55 (RGGRIFRSSDFAANF; not fully specified) here.
a: 1.01 × 10^5

q: Consider the substance F170A: single residue mutant of his-tagged sortilin luminal domain; SEQ ID NO 54 (RGGRIFRSSDAAKNF; not fully specified) and give its recorded ka.
a: 1.30 × 10^5

q: Return the recorded ka value; entry: R166A: single residue mutant of his-tagged sortilin luminal domain; SEQ ID NO 53 (RGGRIFASSDFAKNF; not fully specified)
a: 6.48 × 10^4

q: Report ka, nothing else, for this substance: F174A: single residue mutant of his-tagged sortilin luminal domain; SEQ ID NO 56 (RGGRIFRSSDFAKNA; not fully specified)
a: 2.35 × 10^5

q: Input R163A: single residue mutant of his-tagged sortilin luminal domain; SEQ ID NO 51 (RGGAIFRSSDFAKNF; not fully specified) , output reported ka.
a: 1.85 × 10^5

Next:
q: Quote ka reported for R160A: single residue mutant of his-tagged sortilin luminal domain, control; SEQ ID NO 50 (AGGRIFRSSDFAKNF; not fully specified) please.
a: 1.47 × 10^5

q: Please supply the value of reported ka for the item F165A: single residue mutant of his-tagged sortilin luminal domain; SEQ ID NO 52 (RGGRIARSSDFAKNF; not fully specified)
a: 1.10 × 10^5

====

# kd annotations
Biological target: GST-pro-dom-NGF (Homo sapiens, UniProt P01138, A35V)
Construct: previously described GST-NGF-pro-domain fusion protein (Nykjaer et al., Nature 2004)
Sequence (P01138 19-121 A35V): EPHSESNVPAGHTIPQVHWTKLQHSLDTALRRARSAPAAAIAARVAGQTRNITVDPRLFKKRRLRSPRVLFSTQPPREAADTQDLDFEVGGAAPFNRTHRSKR
Assay: SPR binding of GST-pro-dom-NGF to immobilized sortilin site-directed mutants
Conditions: GST-pro-dom-NGF at 10-50 nM; 1:1 binding model
Where no end group is shown, it is not given here.

q: Give the value of kd reported for the following: F170A: single residue mutant of his-tagged sortilin luminal domain; SEQ ID NO 54 (RGGRIFRSSDAAKNF; not fully specified)
a: 5.91 × 10^−4

q: For the substance F165A: single residue mutant of his-tagged sortilin luminal domain; SEQ ID NO 52 (RGGRIARSSDFAKNF; not fully specified) , report kd.
a: 4.22 × 10^−4

q: Look up kd of R166A: single residue mutant of his-tagged sortilin luminal domain; SEQ ID NO 53 (RGGRIFASSDFAKNF; not fully specified) and report it.
a: 2.85 × 10^−4

q: Fill in reported kd for this entry: F174A: single residue mutant of his-tagged sortilin luminal domain; SEQ ID NO 56 (RGGRIFRSSDFAKNA; not fully specified)
a: 1.03 × 10^−3

---
q: Supply kd value. Item: R160A: single residue mutant of his-tagged sortilin luminal domain, control; SEQ ID NO 50 (AGGRIFRSSDFAKNF; not fully specified)
a: 2.27 × 10^−4

q: Tell us which kd value is on record for K172A: single residue mutant of his-tagged sortilin luminal domain; SEQ ID NO 55 (RGGRIFRSSDFAANF; not fully specified)
a: 3.46 × 10^−4

q: Output measured kd for this item: R163A: single residue mutant of his-tagged sortilin luminal domain; SEQ ID NO 51 (RGGAIFRSSDFAKNF; not fully specified)
a: 4.21 × 10^−4
